Experiment: Stability in mouse liver microsomes measured after 1 hr
Format: ADME, Microsome
Details: read-out: Stability
property-label: remaining at 1 h (%)
Numbers only here, please. The scale is %.

# input Reported remaining at 1 h for CCCSc1nc(N/N=C/c2cccc(O)c2)c2nnn([C@@H]3C[C@H](O)[C@@H](O)[C@H]3O)c2n1 : what is it?
# output 81.2

====

Experiment: Antiplatelet activity against ADP-induced human platelet in platelet rich plasma assessed as inhibition of platelet aggregation at 10 uM preincubated for 2 mins followed by ADP stimulation and measured for 5 mins by aggregometry relative to control
Assay type: functional
Conditions: 7 min
property-label: inhibition at 10 µM (%)
Numbers only here, please. The scale is %.

Reference set (5 entries):
[[record]]
structure_string = "CCCSc1nc(N/N=C/c2cccs2)c2nnn([C@@H]3C[C@H](O)[C@@H](O)[C@H]3O)c2n1"
property_label = "inhibition at 10 µM"
experimental_value = 95.4

[[record]]
structure_string = "CCCSc1nc(N/N=C/c2ccc(OC)c(OC)c2)c2nnn([C@@H]3C[C@H](O)[C@@H](O)[C@H]3O)c2n1"
property_label = "inhibition at 10 µM"
experimental_value = 78.3

[[record]]
structure_string = "CCCSc1nc(N/N=C/c2ccc([N+](=O)[O-])cc2)c2nnn([C@@H]3C[C@H](O)[C@@H](O)[C@H]3O)c2n1"
property_label = "inhibition at 10 µM"
experimental_value = 62.7

[[record]]
structure_string = "CCCSc1nc(NCCO)c2nnn([C@@H]3C[C@H](O)[C@@H](O)[C@H]3O)c2n1"
property_label = "inhibition at 10 µM"
experimental_value = 69.4

[[record]]
structure_string = "CCCSc1nc(NCCCc2ccccc2)c2nnn([C@@H]3C[C@H](O)[C@@H](O)[C@H]3O)c2n1"
property_label = "inhibition at 10 µM"
experimental_value = 29.3


# input Reported inhibition at 10 µM for CCCSc1nc(N/N=C/c2ccc(Cl)cc2)c2nnn([C@@H]3C[C@H](OCCO)[C@@H](O)[C@H]3O)c2n1 : what is it?
# output 69.1

# input Reported inhibition at 10 µM for CCCSc1nc(NCCc2cccc(F)c2)c2nnn([C@@H]3C[C@H](O)[C@@H](O)[C@H]3O)c2n1 : what is it?
# output 68.3

# input Reported inhibition at 10 µM for CCCNc1nc(SCCC)nc2c1nnn2[C@@H]1C[C@H](OCCO)[C@@H](O)[C@H]1O : what is it?
# output 13.6

# input Reported inhibition at 10 µM for CCCSc1nc(N/N=C/c2ccc(F)c(F)c2)c2nnn([C@@H]3C[C@H](O)[C@@H](O)[C@H]3O)c2n1 : what is it?
# output 96.5

# input Reported inhibition at 10 µM for CCCSc1nc(N/N=C/c2cccc([N+](=O)[O-])c2)c2nnn([C@@H]3C[C@H](OCCO)[C@@H](O)[C@H]3O)c2n1 : what is it?
# output 95.5

# input Reported inhibition at 10 µM for CCCSc1nc(N/N=C/c2ccccc2Cl)c2nnn([C@@H]3C[C@H](O)[C@@H](O)[C@H]3O)c2n1 : what is it?
# output 83.2
